Ref: the supplement of paper PMC11208160

- methodSummary: recombinant UMI read abundance after kanamycin selection (control-corrected) (log10(CPM+1)); higher = more efficient recombination; extreme values may be limits of the assay; sequences stand for … in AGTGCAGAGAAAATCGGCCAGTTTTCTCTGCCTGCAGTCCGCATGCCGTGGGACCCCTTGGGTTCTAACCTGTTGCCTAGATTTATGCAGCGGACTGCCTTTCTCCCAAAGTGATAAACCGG…AGGTTGGTTTCACT; site = the 11-nt donor;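 also: IS621 bridge recombinase in Escherichia coli cells against a fixed T5 target plasmid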
Entries and their recombinant UMI read abundance (log10)

# count of solved cases: 2
residueCodes	recombinant UMI read abundance (log10)
GGCCACCCATGGACCGGTTTTCCCGGTAATCCGTATTTGCT (site GGCCACCCTAG)	0
GAATGGCCATGGACCGGTTTTCCCGGTAATCCGTATTTGTA (site GAATGGCCTTT)	0.0207

Given CAGTCCTCATGGACCGGTTTTCCCGGTAATCCGTATTTGCC (site CAGTCCTCTGG) , state its recorded recombinant UMI read abundance (log10).
2.38

I'd like to know its recombinant UMI read abundance (log10). The sequence in question is CGTTCATCATGGACCGGTTTTCCCGGTAATCCGTATTTGCC (site CGATCATCTAG)
0

Need recombinant UMI read abundance (log10), item CACACCCCATGGACCGGTTTTCCCGGTAATCCGTATTTGCC (site CACACCCCTGG)
1.91

Reported recombinant UMI read abundance (log10), sequence AACCGACCATGGACCGGTTTTCCCGGTAATCCGTATTTGAT (site AACCGTCCTAT) : ____
0.0119

Requested read-out: recombinant UMI read abundance (log10). Entry: TAATGATCATGGACCGGTTTTCCCGGTAATCCGTATTTGGG (site TAATGAGCTCC)
0.0135

Give its recombinant UMI read abundance (log10) value. Item: GGCAAACCATGGACCGGTTTTCCCGGTAATCCGTATTTGAA (site GGCAATCCTTT)
0

# query: recombinant UMI read abundance (log10) of entry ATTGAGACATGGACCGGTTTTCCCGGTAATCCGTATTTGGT (site ATTTAGACTAC)
0.353

Form field: reported recombinant UMI read abundance (log10) of CTAGCTTCATGGACCGGTTTTCCCGGTAATCCGTATTTGAC (site CTAGCTTCTGT)
2.18

// recombinant UMI read abundance (log10) lookup, key: CGTGGAACATGGACCGGTTTTCCCGGTAATCCGTATTTGTG (site CGTGGAACTAA)
0.0173

Report recombinant UMI read abundance (log10) for GCCAGGCCATGGACCGGTTTTCCCGGTAATCCGTATTTGTA (site GCCACGCCTTA) please.
0.00645

Endpoint output: recombinant UMI read abundance (log10) of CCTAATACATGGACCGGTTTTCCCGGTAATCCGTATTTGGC (site CCTTATACTGC) . Value?
0

May I ask what recombinant UMI read abundance (log10) has been recorded for CTGACTCCATGGACCGGTTTTCCCGGTAATCCGTATTTGTT (site CGGAATCCTAA) ?
0.00356

Field request: recombinant UMI read abundance (log10) | item: CGAGGACCATGGACCGGTTTTCCCGGTAATCCGTATTTGAG (site CGAGGACCTCG)
0.00506

recombinant UMI read abundance (log10) for GCGGCCCCATGGACCGGTTTTCCCGGTAATCCGTATTTGAT (site GCGGCCCCTAT) ?
0.00951

Consider the sequence shown here: GGCAATCCATGGACCGGTTTTCCCGGTAATCCGTATTTGAC (site GGCAATCCTAT) What is its recorded recombinant UMI read abundance (log10)?
0.00921

What value of measured recombinant UMI read abundance (log10) is listed for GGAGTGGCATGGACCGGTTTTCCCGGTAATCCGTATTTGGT (site GGAGAGGCTAC) ?
0.524
